# Subject of test: δ opioid receptors (Rattus norvegicus)
# Construct: Membrane fractions were prepared from Sprague-Dawley rat or guinea pig brains; from tissue; host or cells: Sprague-Dawley rat brain (without cerebella) membranes
# Sequence (P33533 whole entry): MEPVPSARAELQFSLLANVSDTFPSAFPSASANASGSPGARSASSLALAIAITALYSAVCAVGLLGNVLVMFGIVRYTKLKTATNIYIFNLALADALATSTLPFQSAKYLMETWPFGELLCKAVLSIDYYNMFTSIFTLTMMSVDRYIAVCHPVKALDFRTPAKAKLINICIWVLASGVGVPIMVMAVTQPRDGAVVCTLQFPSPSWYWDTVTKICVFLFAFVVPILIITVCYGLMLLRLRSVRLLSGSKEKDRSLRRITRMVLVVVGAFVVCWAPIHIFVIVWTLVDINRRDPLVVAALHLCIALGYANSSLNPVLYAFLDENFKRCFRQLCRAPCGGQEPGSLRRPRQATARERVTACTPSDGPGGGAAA
# Protocol: Opioid receptor binding assay, [3H][Ile5,6]deltorphin II, rat brain membranes
# Parameters: species or system Sprague-Dawley rat
# Test context: [3H][Ile5,6]deltorphin II, rat brain membranes; read-out: Opioid binding affinities Ki δ receptor
pKi: −log10 of the molar value.
Quantity name: pKi

>>> df
                                   compound  reported
0  O=CN1CC[C@]23CC(=O)CC[C@H]2[C@H]1CC1=C3C(=O)C=CC1=O    < 5.00
